Organism: Rattus norvegicus
Assay: Open TG-GATES - Regimen: Single
Assay type: toxicity, organism-based, Sprague-Dawley
Set-up: regimen Single, gender Male, age 6 weeks
Settings: in vivo, po, 0 mg/kg, 3 h, tissue Plasma, route gavage, dose level Control
# Cl per record follows
Observation type: Cl (meq/L)

{"Molecule": "Cn1cc[nH]c1=S", "Observation type": "Cl", "Measurement unit": "meq/L", "Observed": 106.8}
{"Molecule": "Cc1cccc(C)c1OCC(C)N (centres undefined)", "Observation type": "Cl", "Measurement unit": "meq/L", "Observed": 107}
{"Molecule": "C=C(C)[C@H]1Cc2c(ccc3c2O[C@@H]2COc4cc(OC)c(OC)cc4[C@@H]2C3=O)O1", "Observation type": "Cl", "Measurement unit": "meq/L", "Observed": 104.6}
{"Molecule": "OCCN1CCN(CCCN2c3ccccc3Sc3ccc(C(F)(F)F)cc32)CC1", "Observation type": "Cl", "Measurement unit": "meq/L", "Observed": 104.2}
{"Molecule": "Cc1ccc2cc3c(ccc4ccccc43)c3c2c1CC3", "Observation type": "Cl", "Measurement unit": "meq/L", "Observed": 104.3}
{"Molecule": "C[C@H]1C(=O)O[C@@H]2CCN3CC=C(COC(=O)[C@](C)(O)[C@]1(C)O)[C@H]23", "Observation type": "Cl", "Measurement unit": "meq/L", "Observed": 106.6}
{"Molecule": "O=[N+]([O-])c1ccc(O)c([N+](=O)[O-])c1", "Observation type": "Cl", "Measurement unit": "meq/L", "Observed": 103.6}
{"Molecule": "CCOC(=O)C(C)(C)Oc1ccc(Cl)cc1 [CLOFIBRATE]", "Observation type": "Cl", "Measurement unit": "meq/L", "Observed": 101.8}
{"Molecule": "C[C@H]1O[C@H](O[C@H]2[C@H](O)[C@@H](O)[C@@H](O[C@H]3[C@H](O)[C@@H](O)C(O)O[C@@H]3CO)O[C@@H]2CO)[C@H](O)[C@@H](O)[C@@H]1N[C@H]1C=C(CO)[C@@H](O)[C@H](O)[C@H]1O (some centres undefined)", "Observation type": "Cl", "Measurement unit": "meq/L", "Observed": 105.2}

----------
# Plat per record follows
Species on record: Rattus norvegicus
Assay: Open TG-GATES - Regimen: Single
Type: toxicity, organism-based, Sprague-Dawley
Set-up: regimen Single, gender Male, age 6 weeks
Settings: in vivo, po, 0 mg/kg, 24 h, tissue Blood, route gavage, dose level Control

{"Compound": "C=C(C)[C@H]1Cc2c(ccc3c2O[C@@H]2COc4cc(OC)c(OC)cc4[C@@H]2C3=O)O1", "Measurement unit": "x10_4/uL", "Plat": 131.2}
{"Compound": "OCCN1CCN(CCCN2c3ccccc3Sc3ccc(C(F)(F)F)cc32)CC1", "Measurement unit": "x10_4/uL", "Plat": 113.4}
{"Compound": "C[C@H]1O[C@H](O[C@H]2[C@H](O)[C@@H](O)[C@@H](O[C@H]3[C@H](O)[C@@H](O)C(O)O[C@@H]3CO)O[C@@H]2CO)[C@H](O)[C@@H](O)[C@@H]1N[C@H]1C=C(CO)[C@@H](O)[C@H](O)[C@H]1O (some centres undefined)", "Measurement unit": "x10_4/uL", "Plat": 113.4}
{"Compound": "CCOC(=O)C(C)(C)Oc1ccc(Cl)cc1 [CLOFIBRATE]", "Measurement unit": "x10_4/uL", "Plat": 127.3}
{"Compound": "C[C@H]1C(=O)O[C@@H]2CCN3CC=C(COC(=O)[C@](C)(O)[C@]1(C)O)[C@H]23", "Measurement unit": "x10_4/uL", "Plat": 119.4}
{"Compound": "Cc1ccc2cc3c(ccc4ccccc43)c3c2c1CC3", "Measurement unit": "x10_4/uL", "Plat": 119.3}
{"Compound": "Cn1cc[nH]c1=S", "Measurement unit": "x10_4/uL", "Plat": 124.5}
{"Compound": "O=[N+]([O-])c1ccc(O)c([N+](=O)[O-])c1", "Measurement unit": "x10_4/uL", "Plat": 138.4}
{"Compound": "Cc1cccc(C)c1OCC(C)N (centres undefined)", "Measurement unit": "x10_4/uL", "Plat": 128.5}

----------
Species on record: Rattus norvegicus
Assay: Open TG-GATES - Regimen: Single
Assay type: toxicity, organism-based, Sprague-Dawley
Parameters: regimen Single, gender Male, age 6 weeks
Conditions: in vivo, po, 0 mg/kg, 6 h, tissue Plasma, route gavage, dose level Control
# ALP per record follows

{"Compound": "Cn1cc[nH]c1=S", "ALP, IU/L": 1447.2}
{"Compound": "OCCN1CCN(CCCN2c3ccccc3Sc3ccc(C(F)(F)F)cc32)CC1", "ALP, IU/L": 819.6}
{"Compound": "C[C@H]1C(=O)O[C@@H]2CCN3CC=C(COC(=O)[C@](C)(O)[C@]1(C)O)[C@H]23", "ALP, IU/L": 1365.8}
{"Compound": "C=C(C)[C@H]1Cc2c(ccc3c2O[C@@H]2COc4cc(OC)c(OC)cc4[C@@H]2C3=O)O1", "ALP, IU/L": 1181}
{"Compound": "O=[N+]([O-])c1ccc(O)c([N+](=O)[O-])c1", "ALP, IU/L": 1236}
{"Compound": "CCOC(=O)C(C)(C)Oc1ccc(Cl)cc1 [CLOFIBRATE]", "ALP, IU/L": 1002.8}
{"Compound": "C[C@H]1O[C@H](O[C@H]2[C@H](O)[C@@H](O)[C@@H](O[C@H]3[C@H](O)[C@@H](O)C(O)O[C@@H]3CO)O[C@@H]2CO)[C@H](O)[C@@H](O)[C@@H]1N[C@H]1C=C(CO)[C@@H](O)[C@H](O)[C@H]1O (some centres undefined)", "ALP, IU/L": 1467.2}
{"Compound": "Cc1ccc2cc3c(ccc4ccccc43)c3c2c1CC3", "ALP, IU/L": 1728.2}
{"Compound": "Cc1cccc(C)c1OCC(C)N (centres undefined)", "ALP, IU/L": 1119.6}

----------
# LDH per record follows
Organism: Rattus norvegicus
Test: Open TG-GATES - Regimen: Daily Repeat
Type: toxicity, organism-based, Sprague-Dawley
Design: regimen Daily Repeat, gender Male, age 6 weeks
Conditions: in vivo, po, 0 mg/kg, […], tissue Plasma, route gavage, dose level Control, time 14 day

{"Compound": "Cn1cc[nH]c1=S", "LDH / IU/L": 198.6}
{"Compound": "C[C@H]1O[C@H](O[C@H]2[C@H](O)[C@@H](O)[C@@H](O[C@H]3[C@H](O)[C@@H](O)C(O)O[C@@H]3CO)O[C@@H]2CO)[C@H](O)[C@@H](O)[C@@H]1N[C@H]1C=C(CO)[C@@H](O)[C@H](O)[C@H]1O (some centres undefined)", "LDH / IU/L": 74.6}
{"Compound": "O=C1CN(/N=C/c2ccc([N+](=O)[O-])o2)C(=O)N1", "LDH / IU/L": 189.6}
{"Compound": "CCOC(=O)C(C)(C)Oc1ccc(Cl)cc1 [CLOFIBRATE]", "LDH / IU/L": 155}
{"Compound": "C[C@H]1C(=O)O[C@@H]2CCN3CC=C(COC(=O)[C@](C)(O)[C@]1(C)O)[C@H]23", "LDH / IU/L": 217}
{"Compound": "O=[N+]([O-])c1ccc(O)c([N+](=O)[O-])c1", "LDH / IU/L": 101.6}
{"Compound": "C=C(C)[C@H]1Cc2c(ccc3c2O[C@@H]2COc4cc(OC)c(OC)cc4[C@@H]2C3=O)O1", "LDH / IU/L": 111.6}
{"Compound": "Cc1cccc(C)c1OCC(C)N (centres undefined)", "LDH / IU/L": 164.6}
{"Compound": "OCCN1CCN(CCCN2c3ccccc3Sc3ccc(C(F)(F)F)cc32)CC1", "LDH / IU/L": 97.4}

----------
# AST per record follows
Organism: Rattus norvegicus
Assay: Open TG-GATES - Regimen: Daily Repeat
Type: toxicity, organism-based, Sprague-Dawley
Set-up: regimen Daily Repeat, gender Male, age 6 weeks
Conditions: in vivo, po, 0 mg/kg, […], tissue Plasma, route gavage, dose level Control, time 28 day
Observation type: AST (IU/L)

{"Molecule": "C[C@H]1C(=O)O[C@@H]2CCN3CC=C(COC(=O)[C@](C)(O)[C@]1(C)O)[C@H]23", "Observation type": "AST", "Measurement unit": "IU/L", "Observed": 79.6}
{"Molecule": "C=C(C)[C@H]1Cc2c(ccc3c2O[C@@H]2COc4cc(OC)c(OC)cc4[C@@H]2C3=O)O1", "Observation type": "AST", "Measurement unit": "IU/L", "Observed": 58.6}
{"Molecule": "O=C1CN(/N=C/c2ccc([N+](=O)[O-])o2)C(=O)N1", "Observation type": "AST", "Measurement unit": "IU/L", "Observed": 54.8}
{"Molecule": "Cn1cc[nH]c1=S", "Observation type": "AST", "Measurement unit": "IU/L", "Observed": 65.8}
{"Molecule": "Cc1cccc(C)c1OCC(C)N (centres undefined)", "Observation type": "AST", "Measurement unit": "IU/L", "Observed": 61.8}
{"Molecule": "OCCN1CCN(CCCN2c3ccccc3Sc3ccc(C(F)(F)F)cc32)CC1", "Observation type": "AST", "Measurement unit": "IU/L", "Observed": 57}
{"Molecule": "C[C@H]1O[C@H](O[C@H]2[C@H](O)[C@@H](O)[C@@H](O[C@H]3[C@H](O)[C@@H](O)C(O)O[C@@H]3CO)O[C@@H]2CO)[C@H](O)[C@@H](O)[C@@H]1N[C@H]1C=C(CO)[C@@H](O)[C@H](O)[C@H]1O (some centres undefined)", "Observation type": "AST", "Measurement unit": "IU/L", "Observed": 69.6}
{"Molecule": "CCOC(=O)C(C)(C)Oc1ccc(Cl)cc1 [CLOFIBRATE]", "Observation type": "AST", "Measurement unit": "IU/L", "Observed": 57.4}
{"Molecule": "O=[N+]([O-])c1ccc(O)c([N+](=O)[O-])c1", "Observation type": "AST", "Measurement unit": "IU/L", "Observed": 58.6}
